B1: Chromodomain-helicase-DNA-binding protein 7, residues 2564 to 2605; numbered along this chain, Q9P2D1 (parent)
chain: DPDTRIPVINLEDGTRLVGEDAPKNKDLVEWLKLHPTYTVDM

Variants of: B1
test summary: abundance fitness (aPCA) (normalised: wild type 0, dead -1); higher = more abundant; growth selection in yeast, the domain comes from the species named
test settings: Homo sapiens
So I've got a bunch of variants here, and I need their abundance fitness values.
The reply should be a number, written without any unit.

Q: Given the variant T39K , what is its reported abundance fitness?
Ans: 0.076

Q: Please do the same for I9E as well.
Ans: -0.088

Q: Please do the same for K24F as well.
Ans: -0.444

Q: Please do the same for T39V as well.
Ans: -0.004

Q: Please do the same for L11M as well.
Ans: 0.355

Q: Please do the same for P2C as well.
Ans: 0.148

Q: Please do the same for T39I as well.
Ans: -0.158

Q: Please do the same for H35T as well.
Ans: -0.616

Q: Please do the same for T39P as well.
Ans: -0.771

Q: Please do the same for V40I as well.
Ans: -0.135

Q: Please do the same for E20F as well.
Ans: -0.365

Q: Please do the same for R5T as well.
Ans: -0.244

Q: Please do the same for R5W as well.
Ans: -0.906

Q: Please do the same for D1L as well.
Ans: -0.43

Q: Please do the same for V18S as well.
Ans: 0.076

Q: Please do the same for P23H as well.
Ans: -0.679

Q: Please do the same for L28W as well.
Ans: -0.827

Q: Please do the same for N10T as well.
Ans: -0.466

Q: Please do the same for D21A as well.
Ans: -0.279

Q: Please do the same for K26G as well.
Ans: -0.208

Q: Please do the same for V8C as well.
Ans: -0.577

Q: Please do the same for K26Y as well.
Ans: -0.481

Data origin: the Human Domainome abundance scans (Beltran et al. 2025)
